Exercise: for every item that follows, state its recorded protein stability index.
B1: OR10K2 (parent)
chain: SLARLQQLLFVIFLLLYLFTLGTN

variants of: B1; experiment: protein stability index of a GFP-peptide fusion (GPS, HEK-293T) (PSI 1-6); higher = more stable; conditions: c terminus: a fixed tail appended;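 further: lentivirally expressed fusions sorted by FACS into six bins by GFP to DsRed ratio, PSI derived from sequencing read proportions per bin multiplied by bin number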
API note: the answer field is a bare number with no unit suffix.

Problem: Read off the recorded protein stability index for SLARLTQLLFVIFLLLYLFTLGTN [Q6T]
Solution: 2.68

Problem: State its protein stability index: SLARLQQLKFVIFLLLYLFTLGTN [L9K]
Solution: 3.92

Problem: # return recorded protein stability index for entry SLARLQMLLFVIFLLLYLFTLGTN [Q7M]
Solution: 2.14

Problem: Look up protein stability index of QLARLQQLLFVIFLLLYLFTLGTN [S1Q] and report it.
Solution: 2.21

Problem: Read the entry SLARLQCLLFVIFLLLYLFTLGTN [Q7C] and write its reported protein stability index.
Solution: 2.1

Problem: Please give the documented protein stability index of SLARLQQLLFVIALLLYLFTLGTN [F13A]
Solution: 2.44

Problem: Note down protein stability index recorded for SLARNQQLLFVIFLLLYLFTLGTN [L5N]
Solution: 2

Problem: Report measured protein stability index; entry is SLARDQQLLFVIFLLLYLFTLGTN [L5D]
Solution: 3.05

Problem: For the variant HLARLQQLLFVIFLLLYLFTLGTN [S1H] , give its measured protein stability index value.
Solution: 2.88

Problem: In one line, give reported protein stability index of the entry SLARLQQELFVIFLLLYLFTLGTN [L8E] .
Solution: 1.9
